molecular target: HeLa cell extract proteins (Homo sapiens); construct: endogenous in cells; host or cells: HeLa cell extract; type: binding; conditions: HeLa; protein APOBEC3B

[
  {
    "COMPOUND": "NCCOCCOCC(=O)Nc1nc2ncc(CNc3ccc(C(=O)NC(CCC(=O)O)C(=O)O)cc3)nc2c(=O)[nH]1 (stereo not drawn) [compound 6]",
    "fold changes relative to vehicle control": 1.02
  },
  {
    "COMPOUND": "CCCCCCOc1cccc(Cc2cnc(N)nc2N)c1 [compound 2]",
    "fold changes relative to vehicle control": 1.25
  },
  {
    "COMPOUND": "CCCCCCOc1ccc(Cc2cnc(N)nc2N)cc1 [compound 1]",
    "fold changes relative to vehicle control": 0.92
  },
  {
    "COMPOUND": "Nc1nc2c(c(=O)[nH]1)N(C=O)C(CNc1ccc(C(=O)N[C@@H](CCC(=O)O)C(=O)O)cc1)CN2 (stereo partly drawn) [LEU, leucovorin]",
    "fold changes relative to vehicle control": 0.93
  },
  {
    "COMPOUND": "NCCCNc1ccc(C(=O)NC(CCC(=O)O)C(=O)O)cc1 (stereo not drawn) [compound 7]",
    "fold changes relative to vehicle control": 0.94
  },
  {
    "COMPOUND": "Nc1nc2cccc(-c3ccccc3)c2n1Cc1ccc(Cl)c(Cl)c1 [compound 3]",
    "fold changes relative to vehicle control": 1.01
  }
]

----------
Biological target: HeLa cell extract proteins (Homo sapiens, UniProt Q14978)
Construct: endogenous in cells; host or cells: HeLa cell extract
Sequence (Q14978 1-699): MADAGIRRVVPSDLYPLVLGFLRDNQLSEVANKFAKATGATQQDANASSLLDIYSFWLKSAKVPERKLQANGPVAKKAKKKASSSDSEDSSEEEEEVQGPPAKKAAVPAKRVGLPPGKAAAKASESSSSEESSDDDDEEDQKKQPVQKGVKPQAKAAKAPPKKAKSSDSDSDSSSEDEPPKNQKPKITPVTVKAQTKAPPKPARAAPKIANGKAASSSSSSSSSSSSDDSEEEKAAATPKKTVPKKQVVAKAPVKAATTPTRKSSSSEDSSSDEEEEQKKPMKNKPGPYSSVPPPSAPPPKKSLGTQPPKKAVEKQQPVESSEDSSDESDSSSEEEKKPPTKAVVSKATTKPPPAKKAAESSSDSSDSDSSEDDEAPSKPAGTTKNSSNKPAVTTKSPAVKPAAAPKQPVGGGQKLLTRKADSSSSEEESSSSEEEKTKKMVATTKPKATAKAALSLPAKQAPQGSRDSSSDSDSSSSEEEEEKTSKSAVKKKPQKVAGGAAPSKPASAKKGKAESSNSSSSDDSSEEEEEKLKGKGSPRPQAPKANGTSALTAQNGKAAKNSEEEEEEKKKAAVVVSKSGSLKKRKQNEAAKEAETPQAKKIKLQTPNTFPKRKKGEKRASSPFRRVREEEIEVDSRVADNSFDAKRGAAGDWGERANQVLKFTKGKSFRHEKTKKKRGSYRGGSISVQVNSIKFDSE
Format: binding
Settings: protein NOLC1; HeLa
// fold changes relative to vehicle control lookup, one value per entry
METRIC: fold changes relative to vehicle control

[
  {
    "COMPOUND": "NCCCNc1ccc(C(=O)NC(CCC(=O)O)C(=O)O)cc1 (stereo not drawn) [compound 7]",
    "METRIC": "fold changes relative to vehicle control",
    "OBS_VALUE": 0.9
  },
  {
    "COMPOUND": "NCCOCCOCC(=O)Nc1nc2ncc(CNc3ccc(C(=O)NC(CCC(=O)O)C(=O)O)cc3)nc2c(=O)[nH]1 (stereo not drawn) [compound 6]",
    "METRIC": "fold changes relative to vehicle control",
    "OBS_VALUE": 0.96
  },
  {
    "COMPOUND": "CCCCCCOc1cccc(Cc2cnc(N)nc2N)c1 [compound 2]",
    "METRIC": "fold changes relative to vehicle control",
    "OBS_VALUE": 1.44
  },
  {
    "COMPOUND": "Nc1nc2cccc(-c3ccccc3)c2n1Cc1ccc(Cl)c(Cl)c1 [compound 3]",
    "METRIC": "fold changes relative to vehicle control",
    "OBS_VALUE": 0.96
  },
  {
    "COMPOUND": "CCCCCCOc1ccc(Cc2cnc(N)nc2N)cc1 [compound 1]",
    "METRIC": "fold changes relative to vehicle control",
    "OBS_VALUE": 0.9
  },
  {
    "COMPOUND": "Nc1nc2c(c(=O)[nH]1)N(C=O)C(CNc1ccc(C(=O)N[C@@H](CCC(=O)O)C(=O)O)cc1)CN2 (stereo partly drawn) [LEU, leucovorin]",
    "METRIC": "fold changes relative to vehicle control",
    "OBS_VALUE": 0.93
  }
]

----------
biological target: HeLa cell extract proteins (Homo sapiens); construct: endogenous in cells; host or cells: HeLa cell extract; format: binding; conditions: HeLa; protein DNAJA1
Rule: measured fold changes relative to vehicle control below 1 gets criterion met; anything equal to or greater than 1 gets criterion not met.

[
  {
    "COMPOUND": "CCCCCCOc1ccc(Cc2cnc(N)nc2N)cc1",
    "DISCRETE_LABEL": "criterion not met"
  },
  {
    "COMPOUND": "NCCCNc1ccc(C(=O)NC(CCC(=O)O)C(=O)O)cc1 (stereo not drawn)",
    "DISCRETE_LABEL": "criterion not met"
  },
  {
    "COMPOUND": "NCCOCCOCC(=O)Nc1nc2ncc(CNc3ccc(C(=O)NC(CCC(=O)O)C(=O)O)cc3)nc2c(=O)[nH]1 (stereo not drawn)",
    "DISCRETE_LABEL": "criterion not met"
  },
  {
    "COMPOUND": "CCCCCCOc1cccc(Cc2cnc(N)nc2N)c1",
    "DISCRETE_LABEL": "criterion not met"
  },
  {
    "COMPOUND": "Nc1nc2cccc(-c3ccccc3)c2n1Cc1ccc(Cl)c(Cl)c1",
    "DISCRETE_LABEL": "criterion met"
  }
]

----------
test system: L. major lysate proteins; test: Multitargeted bead mixture chemoproteomics, single concentration competition, proteome-wide; format: binding; conditions: protein LMJF.15.1010 GLUTAMATE DEHYDROGENASE; vehicle control = 1
METRIC: fold change

[
  {
    "COMPOUND": "Nc1nc2cccc(-c3ccccc3)c2n1Cc1ccc(Cl)c(Cl)c1 [compound 3]",
    "OBS_VALUE": 1.08
  },
  {
    "COMPOUND": "Nc1nc2[nH]cc(CCc3ccc(C(=O)N[C@@H](CCC(=O)O)C(=O)O)cc3)c2c(=O)[nH]1 [PTX, pemetrexed]",
    "OBS_VALUE": 1
  },
  {
    "COMPOUND": "NCCCNc1ccc(C(=O)NC(CCC(=O)O)C(=O)O)cc1 (stereo not shown) [compound 7]",
    "OBS_VALUE": 1.04
  },
  {
    "COMPOUND": "Nc1nc2c(c(=O)[nH]1)N(C=O)C(CNc1ccc(C(=O)N[C@@H](CCC(=O)O)C(=O)O)cc1)CN2 (stereo partly shown) [LEU, leucovorin]",
    "OBS_VALUE": 0.98
  }
]

----------
biological target: HeLa cell extract proteins (Homo sapiens, UniProt Q86X55); construct: endogenous in cells; host or cells: HeLa cell extract; assay type: binding; conditions: HeLa; protein CARM1
Sequence (Q86X55 whole entry): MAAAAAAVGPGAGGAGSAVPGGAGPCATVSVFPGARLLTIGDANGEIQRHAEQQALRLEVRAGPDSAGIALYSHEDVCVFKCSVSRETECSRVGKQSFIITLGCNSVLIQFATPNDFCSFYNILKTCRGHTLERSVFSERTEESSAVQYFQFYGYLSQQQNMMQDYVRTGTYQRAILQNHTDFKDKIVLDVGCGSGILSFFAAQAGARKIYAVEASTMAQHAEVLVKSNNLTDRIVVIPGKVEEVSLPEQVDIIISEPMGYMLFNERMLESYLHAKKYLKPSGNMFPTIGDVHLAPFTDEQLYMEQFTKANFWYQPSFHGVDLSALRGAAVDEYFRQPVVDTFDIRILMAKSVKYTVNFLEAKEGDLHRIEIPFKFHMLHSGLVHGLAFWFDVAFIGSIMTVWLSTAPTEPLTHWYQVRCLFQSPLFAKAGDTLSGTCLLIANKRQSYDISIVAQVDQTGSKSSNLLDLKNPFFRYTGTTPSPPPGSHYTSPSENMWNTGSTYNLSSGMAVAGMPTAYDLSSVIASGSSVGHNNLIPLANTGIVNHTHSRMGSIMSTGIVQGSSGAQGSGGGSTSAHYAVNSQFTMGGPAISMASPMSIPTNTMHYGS
// fold changes relative to vehicle control lookup, one value per entry

[
  {
    "COMPOUND": "CCCCCCOc1ccc(Cc2cnc(N)nc2N)cc1",
    "fold changes relative to vehicle control": 1.02
  },
  {
    "COMPOUND": "NCCCNc1ccc(C(=O)NC(CCC(=O)O)C(=O)O)cc1 (stereo not drawn)",
    "fold changes relative to vehicle control": 1
  },
  {
    "COMPOUND": "Nc1nc2c(c(=O)[nH]1)N(C=O)C(CNc1ccc(C(=O)N[C@@H](CCC(=O)O)C(=O)O)cc1)CN2 (stereo partly drawn)",
    "fold changes relative to vehicle control": 0.95
  },
  {
    "COMPOUND": "CCCCCCOc1cccc(Cc2cnc(N)nc2N)c1",
    "fold changes relative to vehicle control": 0.98
  },
  {
    "COMPOUND": "NCCOCCOCC(=O)Nc1nc2ncc(CNc3ccc(C(=O)NC(CCC(=O)O)C(=O)O)cc3)nc2c(=O)[nH]1 (stereo not drawn)",
    "fold changes relative to vehicle control": 0.89
  },
  {
    "COMPOUND": "Nc1nc2cccc(-c3ccccc3)c2n1Cc1ccc(Cl)c(Cl)c1",
    "fold changes relative to vehicle control": 0.95
  }
]

----------
// percentage of competition from bead binding lookup, one value per entry
test system: ACETYLTRANSFERASE, PUTATIVE (Tb427.08.3310); test: Multitargeted bead mixture competition; format: binding; settings: free ligand 100 μM, T. brucei lysate
METRIC: percentage of competition from bead binding

[
  {
    "MOLECULE": "Cc1ccc2nc(N)[nH]c(=O)c2c1Sc1ccncc1",
    "OBS_VALUE": "29%"
  },
  {
    "MOLECULE": "CN(Cc1cnc2nc(N)nc(N)c2n1)c1ccc(C(=O)N[C@@H](CCC(=O)O)C(=O)O)cc1 [MTX, methotrexate]",
    "OBS_VALUE": "31%"
  },
  {
    "MOLECULE": "Nc1nc2cccc(-c3ccccc3)c2n1Cc1ccc(Cl)c(Cl)c1",
    "OBS_VALUE": "37%"
  },
  {
    "MOLECULE": "Nc1nc(O)c2c(CCc3ccccc3)c[nH]c2n1",
    "OBS_VALUE": "61%"
  }
]
